Quantity name: melting point

INSERT INTO results (compound, result_value) VALUES
  ('CC(C)Nc1cccnc1N1CCN(C(=O)c2ccc(C(=O)NCCOCCO)cn2)CC1', '93 to 95 °C'),
  ('CCc1ccc(-n2nc(Cl)cc2-c2ccc(S(C)(=O)=O)cc2)cc1[N+](=O)[O-]', '134 to 135 °C'),
  ('O=S(CCCCCOc1ccc(C2=C(c3ccccc3)CCCc3cc(O)ccc32)cc1)Cc1cccs1 (stereo not drawn)', '174 to 177 °C');

I'd like to know its melting point. The compound in question is `O=C(CCCl)c1cc2c3c(c1)CCN3C(=O)CC2`
154 to 155 °C

I'd like to know its melting point. The compound in question is `COC(=O)c1cscc1O`
40 to 43 °C

I'd like to know its melting point. The compound in question is CC(CO)c1ccc(O)c(Cc2ccccc2O)c1 (stereo not drawn)
86 to 89 °C

----------
# key: entry, value: melting point

In the examples that follow, each entry is paired with its recorded melting point.
INSERT INTO assay_data (molecule, quantity_name, result_value) VALUES
  ('CC1(C)SC(=O)N(Cc2ccccc2[N+](=O)[O-])C1O (stereo not given)', 'melting point', '139 to 143 °C'),
  ('CNC(=O)c1cc(-c2ccc(SC)cc2)nn(CC2CC2)c1=O', 'melting point', '116 to 118 °C'),
  ('CC(=O)OC(C)Cc1ccc(-c2ccc(C(C)=O)cc2)cc1 (stereo not given)', 'melting point', '60 to 61 °C'),
  ('O=C1C[C@@H](O)C[C@H](/C=C/c2ccccc2)O1 (relative stereo)', 'melting point', '94 to 95 °C'),
  ('COCC(=O)c1cnc2c(OC)cccc2c1Cl', 'melting point', '96 to 98 °C');

Continue with the molecule presented below.
I'd like to know its melting point. The molecule in question is `COc1ccc(/C=C(\C#N)c2ccccc2OC)cc1OC1CCCC1`
85 to 87.5 °C

----------
Quantity name: melting point

In the examples that follow, each entry is paired with its recorded melting point.
INSERT INTO results (molecule, quantity_name, result_value) VALUES
  ('O=C(O)CCCc1cc2cc(Cl)ccc2n1S(=O)(=O)c1ccc2c(c1)CNCC2', 'melting point', '> 250 °C'),
  ('COc1ccc(CNCC(O)c2ccccc2)cc1OC (stereo not given)', 'melting point', '93 to 94 °C'),
  ('CCCCCCCCCCCC=CC(O)C(COC1OC(CO)C(O)C(O)C1O)NC(=O)CCCCCCCCCCCCCCCCC (stereo not given)', 'melting point', '209 to 210 °C'),
  ('CC12CCC3=C4CCC(=O)C=C4CCC3C1C=CC2=O (stereo not given)', 'melting point', '182 to 183 °C'),
  ('CCCSc1ccc(-c2coc3ccc(-c4nnc(C)o4)cc23)cc1', 'melting point', '101 to 102 °C');

I'd like to know its melting point. The molecule in question is CCOCCCOC(C)Cc1ccc(-c2ccc(O)cc2)cc1 (single isomer, unassigned; (-))
53 to 55 °C

I'd like to know its melting point. The molecule in question is CC1Cc2cccc(Cl)c2C1=O (stereo not given)
42 to 43 °C

I'd like to know its melting point. The molecule in question is `CCCc1nc(C)c(C(=O)OCC)n1Cc1ccc2oc(-c3ccccc3NS(=O)(=O)C(F)(F)F)c(Br)c2c1`
123 to 125 °C

I'd like to know its melting point. The molecule in question is `CC(C)(C)C(=O)N[C@@H](CS)C(=O)O`
140 °C

I'd like to know its melting point. The molecule in question is `CCc1c([N+](=O)[O-])c(C(N)=O)nn1C1CN(CC)C1`
177 to 179 °C

----------
# key: entry, value: melting point

In the examples that follow, each entry is paired with its recorded melting point.
INSERT INTO measurements (compound, quantity_name, result_value) VALUES
  ('N#CCCNC(=O)c1cccc(-c2ccc3c(c2)N(c2ccc(Cl)cc2Cl)CCCC3)c1', 'melting point', '139 to 142 °C'),
  ('COc1cncc(-c2ccc(OC3SCC(O)C(O)C3O)cn2)c1 (stereo unspecified)', 'melting point', '193 °C'),
  ('CCCOC(=O)CC(c1ccc(OC)cc1)N1C(=O)c2ccccc2C1=O (stereo unspecified)', 'melting point', '51.2 to 52.8 °C'),
  ('O=C(O)/C=C/c1ccc(C(c2cc(F)ccc2F)S(=O)(=O)c2ccc(Cl)cc2)nc1 (stereo unspecified)', 'melting point', '236 to 238 °C'),
  ('CCN1CCc2c(Br)ccc([N+](=O)[O-])c2C1', 'melting point', '52 to 53 °C');

I'd like to know its melting point. The compound in question is `CO/N=C1\CCc2ccccc2C1=Cc1ccc(S(C)(=O)=O)cc1`
175 to 178 °C

I'd like to know its melting point. The compound in question is `COC(=O)N(C)CCc1ccc([N+](=O)[O-])c(CS(=O)(=O)c2ccccc2)c1`
42 °C

I'd like to know its melting point. The compound in question is `CCn1ncc2c3c4c(nc21)CCc1ccccc1-c4nn3C`
140 to 141 °C

I'd like to know its melting point. The compound in question is COc1ccc(CN2C(=O)C3CCCC3=Nc3ccccc32)cc1 (stereo unspecified)
128 to 131 °C

I'd like to know its melting point. The compound in question is `O=S(=O)(Cc1n[nH]c(-c2ccccc2)n1)c1ccccc1`
141 to 144 °C

I'd like to know its melting point. The compound in question is `Cc1cccc(C)c1N1CC(=O)N(c2c(C)cccc2C)CC1=O`
233 to 235 °C

----------
# key: entry, value: melting point

In the examples that follow, each entry is paired with its recorded melting point.
INSERT INTO results (compound, quantity_name, result_value) VALUES
  ('CCOc1ccc(C2C(=O)Oc3c2cc(C(C)(C)C)cc3C(C)(C)C)cc1 (stereo unspecified)', 'melting point', '132 to 134 °C'),
  ('NS(=O)(=O)c1ccc(-n2nc(CCCNC(=O)Nc3ccc(C(F)(F)F)cc3)cc2-c2ccccc2)cc1', 'melting point', '185 to 186 °C'),
  ('CC(=O)C(C)(C)C(Cl)C=Cc1ccccc1 (stereo unspecified)', 'melting point', '71 °C'),
  ('COc1cc(OC)cc(N2CCN(C(=O)N(C)c3nc4ccccc4nc3OC)CC2)c1', 'melting point', '143 to 144 °C'),
  ('Cc1cc(-c2cnn3c(C(F)(F)F)cc(-c4ccc(C(F)(F)F)c(F)c4)nc23)cc(C)n1', 'melting point', '245 °C'),
  ('CCN1CC(CCCl)N(C)c2ccccc2C1=O (stereo unspecified)', 'melting point', '75 to 79 °C'),
  ('CNc1c(F)cc2c(=O)c(C(=O)O)cn(-c3ccc(F)c(N)n3)c2c1Cl', 'melting point', '233 to 238 °C'),
  ('COc1ccc(C(=O)CCC(=O)O)c2c1OC(C)(C)C2', 'melting point', '125 to 126 °C'),
  ('CCC(O)(CC)c1cc(Cl)ccc1O', 'melting point', '76 °C'),
  ('COc1ccc(OC)c2c1CC[C@](O)(C(C)=O)C2', 'melting point', '117 to 120 °C');

I'd like to know its melting point. The compound in question is `COC(=O)Cc1c(C)c2ccc(O)cc2oc1=O`
194 to 196 °C

I'd like to know its melting point. The compound in question is `COc1cc2c(cc1C(F)(F)F)N(C(=O)Nc1csc(-c3cccnc3)n1)CC2`
> 200 °C

I'd like to know its melting point. The compound in question is `Cc1ccc2nc(-c3ccc(C#N)cc3)cn2c1`
225 to 226 °C

I'd like to know its melting point. The compound in question is `O=[N+]([O-])c1ccc(-n2nnnc2-c2ccccc2Br)cc1`
169 to 170 °C

I'd like to know its melting point. The compound in question is `O=C(O)Cc1cccc(C(=O)c2ccc(Cl)cc2)c1[N+](=O)[O-]`
164 to 165 °C

I'd like to know its melting point. The compound in question is O=C1Nc2cc(-c3ccco3)ccc2C2CCCC12F (stereo unspecified)
203 to 206 °C

I'd like to know its melting point. The compound in question is `[N-]=[N+]=Nc1nc(N)nc2nc[nH]c12`
> 260 °C

----------
Quantity name: melting point

INSERT INTO measurements (compound, quantity_name, result_value) VALUES
  ('O=[N+]([O-])c1ccc(C2SCCS2)cc1', 'melting point', '80 to 82 °C');

I'd like to know its melting point. The compound in question is `COCc1nc(N)nc(N)c1-c1cccc(Cl)c1Cl`
237 to 240 °C

I'd like to know its melting point. The compound in question is COc1ccc2c(c1)C(=O)C(Cc1c[nH]c3ccccc13)CO2 (configuration not stated)
121 to 123 °C

I'd like to know its melting point. The compound in question is `COc1cc(O)cc2oc(=O)cc(C)c12`
261 to 263 °C

I'd like to know its melting point. The compound in question is COc1cc(OC)nc(C(C(N)=O)c2cccc(Cl)c2)n1 (configuration not stated)
118 to 119 °C

Provenance of the data: a melting point compilation (Tetko et al.; mined from patent text by program, amines drawn as free bases though some values may be those of a salt)
